From: paper PMC9848286

- Measurement target: COX-2 (Homo sapiens)
- Sequence (P35354 18-604): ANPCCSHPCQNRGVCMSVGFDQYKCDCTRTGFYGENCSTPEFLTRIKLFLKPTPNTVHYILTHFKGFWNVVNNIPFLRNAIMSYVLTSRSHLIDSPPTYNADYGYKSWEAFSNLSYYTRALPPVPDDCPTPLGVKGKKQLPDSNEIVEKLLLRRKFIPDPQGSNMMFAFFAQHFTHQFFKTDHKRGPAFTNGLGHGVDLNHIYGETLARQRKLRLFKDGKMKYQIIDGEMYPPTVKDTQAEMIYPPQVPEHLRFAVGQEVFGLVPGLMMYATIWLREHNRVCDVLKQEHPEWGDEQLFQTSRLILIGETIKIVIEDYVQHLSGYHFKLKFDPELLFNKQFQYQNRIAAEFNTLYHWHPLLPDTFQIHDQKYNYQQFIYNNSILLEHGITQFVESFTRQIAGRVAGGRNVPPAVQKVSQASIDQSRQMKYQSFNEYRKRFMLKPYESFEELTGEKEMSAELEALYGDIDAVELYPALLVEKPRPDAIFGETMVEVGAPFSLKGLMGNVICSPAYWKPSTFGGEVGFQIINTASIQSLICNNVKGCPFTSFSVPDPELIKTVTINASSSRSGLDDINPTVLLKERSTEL
- Protocol: In vitro COX-2 inhibition, colorimetric screening assay kit
- Experimental setup: supplementary dose-response curve
// label = Satisfied if HillSlope (best-fit value), COX-2 inhibition is not less than -0.3, otherwise Not satisfied

{"columns": ["Chemical structure", "Qualitative label"],
 "data": [
  ["COc1ccc(-c2nc(SCC(=O)Nc3c(C)n(C)n(-c4ccccc4)c3=O)[nH]c(=O)c2C#N)cc1", "Not satisfied"],
  ["Cc1ccc(NC(=O)Nc2nnc(SCC(=O)Nc3c(C)n(C)n(-c4ccccc4)c3=O)s2)cc1", "Satisfied"],
  ["Cc1c(NC(=O)CSc2nnc(-c3ccc(Cl)cc3)o2)c(=O)n(-c2ccccc2)n1C", "Satisfied"],
  ["Cc1c(NC(=O)CSc2nnc(-c3ccc(Br)cc3)o2)c(=O)n(-c2ccccc2)n1C", "Not satisfied"],
  ["Cc1ccc(-c2nc(SCC(=O)Nc3c(C)n(C)n(-c4ccccc4)c3=O)[nH]c(=O)c2C#N)cc1", "Not satisfied"]
]}
